TGT: T1, APC7099-AA
T1 chain: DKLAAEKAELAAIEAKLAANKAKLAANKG
ASSAY: two-hybrid library CCmax;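 also: natural log of median RNA to DNA barcode read ratio; higher means stronger binding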
RECORDED CONDITIONS: mean of both orientations
Catalogue of binders with associated interaction score
MEASURED ENDPOINT: interaction score

BINDER	VALUE REPORTED
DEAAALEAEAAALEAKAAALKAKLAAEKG [APC2237-AA]	-1.59
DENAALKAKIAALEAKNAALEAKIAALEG [4H1845-AA]	-1.48
DEAAALEAENAALEAELAAIEAKNAALKG [APC2405-AA]	-1.31
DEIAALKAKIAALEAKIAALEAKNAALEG [4H807-AA]	-1.32
DENAALEAENAALEAKAAALKAELAAEEG [APC4436-AA]	-1.57
DKAAALKAELAAEEAENAALEAKNAALKG [APC3645-AA]	-1.63
DENAALEAEAAALEAELAAEEAENAALEG [APC4264-AA]	-1.96
DKNAALKAKAAALKAELAANEAKAAALKG [APC5383-AA]	-1.61
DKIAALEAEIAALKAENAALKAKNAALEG [4H2143-AA]	-1.51
DENAALEAELAAIEAKLAAIKAKLAAIKG [APC4011-AA]	-1.45
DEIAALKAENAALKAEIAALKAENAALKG [4H716-AA]	-1.6
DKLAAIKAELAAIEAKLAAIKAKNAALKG [APC1015-AA]	-2.02
DKLAAIKAENAALEAKAAALKAENAALEG [APC1434-AA]	-1.28
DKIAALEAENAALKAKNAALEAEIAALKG [4H2290-AA]	-1.57
